System: NCI-H2405
Experiment: relative viability (nuclei count vs DMSO), 5 days (fraction); higher = more cells survive
Details: first compound 0.04 µM
quantityName: relative viability
The reply should be a number, written without any unit.

For reference, reported relative viability for C[C@@H]1CN(CC(=O)Nc2ccc3c(c2)Cc2cccc(-c4cc(=O)cc(N5CCOCC5)o4)c2S3)C[C@H](C)O1 + C[C@]1(O)C[C@@H](c2nc(-c3ccc4ccc(-c5ccccc5)nc4c3)c3c(N)nccn32)C1 [Linsitinib] (partner 1 µM) stands at 0.896

For reference, reported relative viability for C[C@@H]1CN(CC(=O)Nc2ccc3c(c2)Cc2cccc(-c4cc(=O)cc(N5CCOCC5)o4)c2S3)C[C@H](C)O1 + O=C(CCCCCCC(=O)Nc1ccccc1)NO [Vorinostat] (partner 1 µM) stands at 1.06

For reference, reported relative viability for Clc1ccc(Nc2nnc(Cc3ccncc3)c3ccccc23)cc1 [Vatalanib] + CCNC(=O)c1noc(-c2cc(C(C)C)c(O)cc2O)c1-c1ccc(CN2CCOCC2)cc1 [Luminespib] (partner 0.01 µM) stands at 0.753

Further cases:
For reference, reported relative viability for COc1cc(N2CCC(C(N)=O)CC2)ccc1Nc1nc(N)c(Cl)c(Nc2ccccc2S(=O)(=O)C(C)C)n1 [HG-5-88-01] + Nc1ncn([C@H]2C[C@H](O)[C@@H](CO)O2)c(=O)n1 [Decitabine] (partner 2 µM) stands at 0.67

For reference, reported relative viability for COc1cc(N2CCC(C(N)=O)CC2)ccc1Nc1nc(N)c(Cl)c(Nc2ccccc2S(=O)(=O)C(C)C)n1 [HG-5-88-01] + N=C(N)NC(=N)NCCc1ccccc1 [Phenformin] (partner 250 µM) stands at 0.46

###

Tested on: NCI-H1395
Test: relative viability (nuclei count vs DMSO), 5 days (fraction); higher = more cells survive
Settings: first compound 0.04 µM
quantityName: relative viability
The reply should be a number, written without any unit.

Examples with answers:
For reference, reported relative viability for Clc1ccc(Nc2nnc(Cc3ccncc3)c3ccccc23)cc1 [Vatalanib] + O=C(CCCCCCC(=O)Nc1ccccc1)NO [Vorinostat] (partner 1 µM) stands at 0.71

For reference, reported relative viability for C[C@@H]1CN(CC(=O)Nc2ccc3c(c2)Cc2cccc(-c4cc(=O)cc(N5CCOCC5)o4)c2S3)C[C@H](C)O1 + CS(=O)(=O)N1CCN(Cc2cc3nc(-c4cccc5[nH]ncc45)nc(N4CCOCC4)c3s2)CC1 [Pictilisib] (partner 1 µM) stands at 0.66

Shift focus to the following entry.
For reference, reported relative viability for C[C@@H]1CN(CC(=O)Nc2ccc3c(c2)Cc2cccc(-c4cc(=O)cc(N5CCOCC5)o4)c2S3)C[C@H](C)O1 + CS(=O)(=O)CCNCc1ccc(-c2ccc3ncnc(Nc4ccc(OCc5cccc(F)c5)c(Cl)c4)c3c2)o1 [Lapatinib] (partner 2 µM) stands at 0.928

###

Each entry below lists one item and its recorded relative viability value.
System: RERF-LC-KJ
Assay: relative viability (nuclei count vs DMSO), 5 days (fraction); higher = more cells survive
Conditions: first compound 0.04 µM
The reply should be a number, written without any unit.

Examples with answers:
For reference, reported relative viability for Clc1ccc(Nc2nnc(Cc3ccncc3)c3ccccc23)cc1 [Vatalanib] + COc1cc2c(Oc3ccc(NC(=O)C4(C(=O)Nc5ccc(F)cc5)CC4)cc3F)ccnc2cc1OCCCN1CCOCC1 [Foretinib] (partner 0.25 µM) stands at 0.889

For reference, reported relative viability for C[C@@H]1CN(CC(=O)Nc2ccc3c(c2)Cc2cccc(-c4cc(=O)cc(N5CCOCC5)o4)c2S3)C[C@H](C)O1 + CC(C)C[C@H](NC(=O)[C@H](Cc1ccccc1)NC(=O)c1cnccn1)B(O)O [Bortezomib] (partner 0.002 µM) stands at 1.24

For reference, reported relative viability for C[C@@H]1CN(CC(=O)Nc2ccc3c(c2)Cc2cccc(-c4cc(=O)cc(N5CCOCC5)o4)c2S3)C[C@H](C)O1 + Cc1nc(NC(=O)N2CCC[C@H]2C(N)=O)sc1-c1ccnc(C(C)(C)C(F)(F)F)c1 [Alpelisib] (partner 2 µM) stands at 0.869

For reference, reported relative viability for Clc1ccc(Nc2nnc(Cc3ccncc3)c3ccccc23)cc1 [Vatalanib] + C[C@]1(O)C[C@@H](c2nc(-c3ccc4ccc(-c5ccccc5)nc4c3)c3c(N)nccn32)C1 [Linsitinib] (partner 1 µM) stands at 0.932

Further cases:
For reference, reported relative viability for COc1cc(N2CCC(C(N)=O)CC2)ccc1Nc1nc(N)c(Cl)c(Nc2ccccc2S(=O)(=O)C(C)C)n1 [HG-5-88-01] + O=C(c1cc(Cc2n[nH]c(=O)c3ccccc23)ccc1F)N1CCN(C(=O)C2CC2)CC1 [Olaparib] (partner 8 µM) stands at 0.937

For reference, reported relative viability for C[C@@H]1CN(CC(=O)Nc2ccc3c(c2)Cc2cccc(-c4cc(=O)cc(N5CCOCC5)o4)c2S3)C[C@H](C)O1 + Nc1ncn([C@H]2C[C@H](O)[C@@H](CO)O2)c(=O)n1 [Decitabine] (partner 2 µM) stands at 0.711

For reference, reported relative viability for Clc1ccc(Nc2nnc(Cc3ccncc3)c3ccccc23)cc1 [Vatalanib] + CCNC(=O)c1noc(-c2cc(C(C)C)c(O)cc2O)c1-c1ccc(CN2CCOCC2)cc1 [Luminespib] (partner 0.01 µM) stands at 1.17

For reference, reported relative viability for COc1cc(N2CCC(C(N)=O)CC2)ccc1Nc1nc(N)c(Cl)c(Nc2ccccc2S(=O)(=O)C(C)C)n1 [HG-5-88-01] + CC1(C)CCC(c2ccc(Cl)cc2)=C(CN2CCN(c3ccc(C(=O)NS(=O)(=O)c4ccc(N[C@H](CCN5CCOCC5)CSc5ccccc5)c(S(=O)(=O)C(F)(F)F)c4)cc3)CC2)C1 [Navitoclax] (partner 0.5 µM) stands at 1.05

Values from the supplement of paper PMC10307832
